List of %Inh values.
- Test system: EPHB2
- Measurement Parameters: concentration: 1 μM, replicates: in singlicate; n = 1;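 also: KINOMEscan kinase panel screen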

Molecule: Cc1nnc(-c2ccc3ncn(-c4ccc(S(C)=O)cc4)c3c2)o1 (stereo not drawn)
%Inh, %: 15

Molecule: COc1ccc(-c2cc3c(C)nc(N)nc3n([C@H]3CC[C@H](OCCO)CC3)c2=O)cn1
%Inh, %: 0

Molecule: COc1cc2nccc(Nc3cccc(Oc4ccccc4)c3)c2cc1OC.Cl
%Inh, %: 0

====

- Tested on: CSNK2A2
- Measurement Parameters: concentration: 1 μM, replicates: in singlicate; n = 1

Compound: COc1ccc(-n2cnc3c(N)ncnc32)cc1
%Inh (%): 3
//
Compound: CCC(=O)c1c(-c2ccccc2)c2cc(Cl)ccc2c(=O)n1Cc1cc(S(C)(=O)=O)n(CC(F)F)n1
%Inh (%): 0
//
Compound: Nc1nc(-c2ccccc2F)c(-c2ccnc3ccccc23)s1
%Inh (%): 0
//
Compound: COc1ccc(-c2cc3c(C)nc(N)nc3n([C@H]3CC[C@H](O)CC3)c2=O)cn1
%Inh (%): 0
//
Compound: COC(=O)c1c(-c2ccccc2)c2cc(Br)ccc2c(=O)n1Cc1ccc(S(C)(=O)=O)cc1
%Inh (%): 42
//
Compound: Cc1c(Cn2c(C)nn3c(=O)cc(N4CCO[C@H](C)C4)nc23)cccc1C(F)(F)F
%Inh (%): 0
//
Compound: CN1C(=O)C(Nc2cc(Cl)c(O)c(Cl)c2)=C(c2ccc(Cl)cc2)C1=O
%Inh (%): 0
//
Compound: O=C(Nc1n[nH]c2cc(-c3ccccc3F)ccc12)C1CC1
%Inh (%): 0
//
Compound: COc1ccc(Nc2nccc(N3CCC(NS(=O)(=O)c4ccc(NC(C)=O)cc4)C3)n2)cc1 (stereo not drawn)
%Inh (%): 18
//
Compound: COc1cc2ncn(-c3cc(OCc4ccncc4)c(C(N)=O)s3)c2cc1OC
%Inh (%): 29
//
Compound: CCC(=O)c1c(-c2ccccc2)c2cc(Cl)ccc2c(=O)n1Cc1cc(C(=O)NC2CC2)n(C)n1
%Inh (%): 3
//
Compound: CN1C(=O)C(Nc2ccccc2)=C(c2ccccc2)C1=O
%Inh (%): 0

====

List of %Inh values.
- Test system: RIOK2
- Measurement Parameters: concentration: 1 μM, replicates: in singlicate; n = 1
Attribute Measured: %Inh (%)

Compound: O=C(Nc1ccc2c(c1)OCO2)NC1CCN(c2ccnc(NCc3ccc(F)cc3)n2)CC1 [GSK1379859]
Unit String: %
Recorded Value: 0
--
Compound: COc1cc2ncn(-c3cc(OCc4ccc(S(C)(=O)=O)cc4)c(C(N)=O)s3)c2cc1OC [GW869979]
Unit String: %
Recorded Value: 8
--
Compound: COc1ccc(-c2cc3c(C)nc(N)nc3n([C@H]3CC[C@H](O)CC3)c2=O)cn1
Unit String: %
Recorded Value: 0
--
Compound: Nc1ncnc2c1ncn2-c1cccc(F)c1 [SKF-97560]
Unit String: %
Recorded Value: 19
--
Compound: COc1cc(Nc2nccc(N3CCC(NC(=O)C(C)c4ccc(Cl)cc4)C3)n2)cc(OC)c1OC (stereo not shown) [GSK1379757]
Unit String: %
Recorded Value: 0
--
Compound: Cc1nnc(-c2ccc3ncn(-c4ccc(S(C)=O)cc4)c3c2)o1 (stereo not shown)
Unit String: %
Recorded Value: 11
--
Compound: COc1cccc(-n2cnc3c(N)ncnc32)c1 [SKF-97416]
Unit String: %
Recorded Value: 22
--
Compound: CCc1ccc(-c2ccc3c(c2)-c2nn(C)cc2S(=O)(=O)N3C)cc1
Unit String: %
Recorded Value: 0
--
Compound: COc1cccc(C2=C(Nc3cccc(C(=O)O)c3)C(=O)NC2=O)c1 [SB-390770]
Unit String: %
Recorded Value: 6
--
Compound: Cc1cccc(-c2nc(Nc3ccc4c(cnn4C)c3)c3ccccc3n2)n1 [GW876731]
Unit String: %
Recorded Value: 0
--
Compound: OCCCNc1nccc(-c2c(-c3cccc(C(F)(F)F)c3)nn3cc(C(F)(F)F)ccc23)n1 [GW630813]
Unit String: %
Recorded Value: 0
--
Compound: Nc1nc(-c2ccccc2F)c(-c2ccnc3ccccc23)s1 [GW560459]
Unit String: %
Recorded Value: 52
--
Compound: COC(=O)c1c(-c2ccccc2)c2cc(Br)ccc2c(=O)n1Cc1ccc(S(C)(=O)=O)cc1
Unit String: %
Recorded Value: 19
--
Compound: CCn1c(-c2nonc2N)nc2ccccc21 [SB-693162/GW549034]
Unit String: %
Recorded Value: 14
--
Compound: COc1ccc(-n2cnc3c(N)ncnc32)cc1 [SKF-97236]
Unit String: %
Recorded Value: 28
--
Compound: CCC(=O)c1c(-c2ccccc2)c2cc(Cl)ccc2c(=O)n1Cc1cc(C(=O)NC2CC2)n(C)n1
Unit String: %
Recorded Value: 17
--
Compound: CN(C)c1cc(-c2ccc3c(N)n[nH]c3c2)nc(N)n1 [GSK2219329]
Unit String: %
Recorded Value: 0
--
Compound: Cl.NS(=O)(=O)c1cccc(Nc2cc(-c3ccc(F)cc3)n[nH]2)c1 [GW824645]
Unit String: %
Recorded Value: 0
--
Compound: COc1cc(Nc2nccc(N3CCC(NC(=O)C4COc5ccccc5O4)C3)n2)cc(OC)c1OC (stereo not shown) [GSK1379761]
Unit String: %
Recorded Value: 0
--
Compound: CN1C(=O)C(Nc2cc(Cl)c(O)c(Cl)c2)=C(c2ccc(Cl)cc2)C1=O [SB-404321]
Unit String: %
Recorded Value: 0
--
Compound: COc1cc2ncn(-c3cc(OCc4ccncc4)c(C(N)=O)s3)c2cc1OC [GSK336313]
Unit String: %
Recorded Value: 6
--
Compound: O=C(NCCNc1ccnc(Nc2ccc(F)cc2)n1)Nc1ccc2c(c1)OCO2 [GSK1379882]
Unit String: %
Recorded Value: 0
--
Compound: O=C(Nc1n[nH]c2cc(-c3ccccc3F)ccc12)C1CC1 [SB-733371]
Unit String: %
Recorded Value: 0
--
Compound: COc1cc2nccc(Nc3cccc(Oc4ccccc4)c3)c2cc1OC.Cl [GW284543]
Unit String: %
Recorded Value: 0
--
Compound: Cc1cc(Nc2nc(-c3cccc(C)n3)nc3ccccc23)ccn1 [GW872411]
Unit String: %
Recorded Value: 0

====

List of %Inh values.
- Test system: INSR
- Measurement Parameters: concentration: 1 μM, replicates: in singlicate; n = 1

Molecule: Nc1ncnc2c1ncn2-c1ccc(Cl)cc1 [AH2635]
Tgt: INSR
%Inh, %: 0
--
Molecule: COc1ccc(Nc2nccc(N3CCC(NS(=O)(=O)c4ccc(NC(C)=O)cc4)C3)n2)cc1 (stereo not drawn) [GSK1379729]
Tgt: INSR
%Inh, %: 4
--
Molecule: CCC(=O)c1c(-c2ccccc2)c2cc(Cl)ccc2c(=O)n1Cc1ccc(C(=O)O)cc1
Tgt: INSR
%Inh, %: 0
--
Molecule: Cl.NS(=O)(=O)c1cccc(Nc2cc(-c3ccc(F)cc3)n[nH]2)c1 [GW824645]
Tgt: INSR
%Inh, %: 5
--
Molecule: COc1cccc(-n2cnc3c(N)ncnc32)c1 [SKF-97416]
Tgt: INSR
%Inh, %: 0
--
Molecule: CCS(=O)(=O)c1ccc(OC)c(Nc2ncc(-c3ccc(F)cc3)o2)c1.Cl [GW591947]
Tgt: INSR
%Inh, %: 0
--
Molecule: OCCCNc1nccc(-c2c(-c3cccc(C(F)(F)F)c3)nn3cc(C(F)(F)F)ccc23)n1 [GW630813]
Tgt: INSR
%Inh, %: 0
--
Molecule: Nc1n[nH]c2ncc(-c3ccccc3)cc12 [SB-517081]
Tgt: INSR
%Inh, %: 18
--
Molecule: CCC(=O)c1c(-c2ccccc2)c2cc(Cl)ccc2c(=O)n1Cc1cc(S(C)(=O)=O)n(CCC(C)(C)O)n1
Tgt: INSR
%Inh, %: 13
--
Molecule: CCS(=O)c1ccc(-c2coc3ccc(-c4nnc(C)o4)cc23)cc1 (stereo not drawn)
Tgt: INSR
%Inh, %: 1
--
Molecule: COC(=O)c1c(-c2ccccc2)c2cc(Br)ccc2c(=O)n1Cc1ccc(S(C)(=O)=O)cc1
Tgt: INSR
%Inh, %: 13
--
Molecule: Cc1nn2c(=O)cc(N3CCOCC3)nc2n1Cc1cccc(Cl)c1Cl [GSK2342769]
Tgt: INSR
%Inh, %: 0
--
Molecule: COc1ccc(-c2coc3ccc(-c4nnc(SCc5cccc(C#N)c5)o4)cc23)cc1
Tgt: INSR
%Inh, %: 20
--
Molecule: COC(=O)c1c(-c2ccccc2)c2cc(Br)ccc2c(=O)n1Cc1ccc(NC(=O)CCC(=O)O)cc1
Tgt: INSR
%Inh, %: 8
--
Molecule: CCc1ccc(-c2ccc3c(c2)-c2nn(C)cc2S(=O)(=O)N3C)cc1
Tgt: INSR
%Inh, %: 0
